Entries annotated with measured pIC50 Category (Activity)
Biological target: T1, Recombinant human FAP (R&D systems, #3715-SE) (human)
T1 sequence: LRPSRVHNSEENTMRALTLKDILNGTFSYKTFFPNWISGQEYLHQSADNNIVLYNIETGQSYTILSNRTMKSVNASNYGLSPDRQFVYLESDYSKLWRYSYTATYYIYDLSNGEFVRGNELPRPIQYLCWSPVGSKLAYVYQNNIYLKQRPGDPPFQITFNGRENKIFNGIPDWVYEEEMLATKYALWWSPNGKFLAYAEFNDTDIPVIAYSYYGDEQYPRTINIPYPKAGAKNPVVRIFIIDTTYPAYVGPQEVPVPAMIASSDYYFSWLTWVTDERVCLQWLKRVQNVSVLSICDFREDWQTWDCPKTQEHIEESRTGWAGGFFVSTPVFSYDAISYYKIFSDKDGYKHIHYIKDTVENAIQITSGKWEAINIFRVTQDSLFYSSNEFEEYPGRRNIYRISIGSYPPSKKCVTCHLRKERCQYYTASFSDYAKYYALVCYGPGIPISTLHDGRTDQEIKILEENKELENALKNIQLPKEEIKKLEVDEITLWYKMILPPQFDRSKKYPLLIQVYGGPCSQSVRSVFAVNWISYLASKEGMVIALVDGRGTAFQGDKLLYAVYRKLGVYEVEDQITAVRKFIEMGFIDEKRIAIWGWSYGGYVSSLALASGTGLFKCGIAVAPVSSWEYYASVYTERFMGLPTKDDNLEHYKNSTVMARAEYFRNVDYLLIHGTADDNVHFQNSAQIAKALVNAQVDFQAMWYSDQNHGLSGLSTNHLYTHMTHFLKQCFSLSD
Numbered stars: 1 amine (or outer) side, 2 acyl side, 3 side chain; on linkers, the order of the positions; unused ones are H or OH. Bridge positions count the residues as written; N and C are the ends. * marks the point of attachment. Ttds = 1,13-diamino-4,7,10-trioxatridecan-succinamic acid, NCCCOCCOCCOCCCNC(=O)CCC(=O)*; tMeBn(DOTA-AET) = Cys-Cys bridge (thioethers) carrying DOTA-AET; DOTA = O=C(O)CN1CCN(CC(=O)O)CCN(CC(=O)*)CCN(CC(=O)O)CC1; mXylylene = c1cc(C[*:1])cc(C[*:2])c1; 3Lut = Cys-Cys bridge (thioethers); Pentanesulfonyl = CCCCCS(=O)(=O)*; PentylNH‑urea = CCCCCNC(=O)*; Hexanoyl = CCCCCC(=O)*

Consider the worked cases shown below.
{"columns": ["BINDER", "VALUE"],
 "data": [
  ["Hexanoyl-CPPTQFCD-NH2 (linker 1-7 via mXylylene; SMILES CCCCCC(=O)N[C@H]1CSCc2cccc(c2)CSC[C@@H](C(=O)N[C@@H](CC(=O)O)C(N)=O)NC(=O)[C@H](Cc2ccccc2)NC(=O)[C@H](CCC(N)=O)NC(=O)[C@H]([C@@H](C)O)NC(=O)[C@@H]2CCCN2C(=O)[C@@H]2CCCN2C1=O) [Hex-[Cys(3MeBn)-Pro-Pro-Thr-Gln-Phe-Cys]-Asp-NH2]", "> 8 pIC50"],
  ["Pentanesulfonyl-CPPTQFCD-NH2 (linker 1-7 via mXylylene; SMILES CCCCCS(=O)(=O)N[C@H]1CSCc2cccc(c2)CSC[C@@H](C(=O)N[C@@H](CC(=O)O)C(N)=O)NC(=O)[C@H](Cc2ccccc2)NC(=O)[C@H](CCC(N)=O)NC(=O)[C@H]([C@@H](C)O)NC(=O)[C@@H]2CCCN2C(=O)[C@@H]2CCCN2C1=O) [Pentyl-SO2-[Cys(3MeBn)-Pro-Pro-Thr-Gln-Phe-Cys]-Asp-NH2]", "> 8 pIC50"],
  ["Hexanoyl-CPPTQFCD-NH2 (linker 1-7 via tMeBn(EuDOTA-PP); also: Eu-DOTA complex) [Hex-[Cys(tMeBn(EuDOTA-PP))-Pro-Pro-Thr-Gln-Phe-Cys]-Asp-NH2]", "> 8 pIC50"],
  ["CPPTQFCD (N-terminal Hex (hexanoyl); Cys1-Cys7 bridged by tMeBn(DOTA-AET) (thioethers); D-Asp8 (asp); C-terminal amide) [Hex-[Cys(tMeBn(DOTA-AET))-Pro-Pro-Thr-Gln-Phe-Cys]-asp-NH2]", "> 8 pIC50"],
  ["Hexanoyl-CPPTQFCD-OH (linker 1-7 via tMeBn(DOTA-AET)) [Hex-[Cys(tMeBn(DOTA-AET))-Pro-Pro-Thr-Gln-Phe-Cys]-Asp-OH]", "> 8 pIC50"],
  ["Hexanoyl-CPPTQFCD-NH2 (linker 1-7 via tMeBn(InDOTA-PP); also: In-DOTA complex) [Hex-[Cys(tMeBn(InDOTA-PP))-Pro-Pro-Thr-Gln-Phe-Cys]-Asp-NH2]", "> 8 pIC50"],
  ["Hexanoyl-CPPTQFCS-OH (linker 1-7 via tMeBn(DOTA-AET)) [Hex-[Cys(tMeBn(DOTA-AET))-Pro-Pro-Thr-Gln-Phe-Cys]-Ser-OH]", "> 8 pIC50"],
  ["{DOTA-Ttds}-LCPPTEFCDHFRD-NH2 (linker 2-8 via mXylylene) [DOTA-Ttds-Leu-[Cys(3MeBn)-Pro-Pro-Thr-Glu-Phe-Cys]-Asp-His-Phe-Arg-Asp-NH2]", "> 8 pIC50"],
  ["Ac-CPPTEFCDHFRD-NH2 (linker 1-7 via mXylylene; SMILES CC(=O)N[C@H]1CSCc2cccc(c2)CSC[C@@H](C(=O)N[C@@H](CC(=O)O)C(=O)N[C@@H](Cc2c[nH]cn2)C(=O)N[C@@H](Cc2ccccc2)C(=O)N[C@@H](CCCNC(=N)N)C(=O)N[C@@H](CC(=O)O)C(N)=O)NC(=O)[C@H](Cc2ccccc2)NC(=O)[C@H](CCC(=O)O)NC(=O)[C@H]([C@@H](C)O)NC(=O)[C@@H]2CCCN2C(=O)[C@@H]2CCCN2C1=O) [Ac-[Cys(3MeBn)-Pro-Pro-Thr-Glu-Phe-Cys]-Asp-His-Phe-Arg-Asp-NH2]", "> 8 pIC50"],
  ["Hexanoyl-CPPTQFCD-NH2 (linker 1-7 via 3Lut) [Hex-[Cys(3Lut)-Pro-Pro-Thr-Gln-Phe-Cys]-Asp-NH2]", "> 8 pIC50"]
]}

Item Hexanoyl-CPPTQFCD-NH2 (linker 1-7 via tMeBn(DOTA-AET)) [Hex-[Cys(tMeBn(DOTA-AET))-Pro-Pro-Thr-Gln-Phe-Cys]-Asp-NH2] has what recorded pIC50 Category (Activity)?
> 8 pIC50

Look up pIC50 Category (Activity): Hexanoyl-CPPTEFCD-NH2 (linker 1-7 via mXylylene; not fully specified (residue 5); printed as Hex-[Cys(3MeBn)-Pro-Pro-Thr-Glu(NH-Apr-DOTA')-Phe-Cys]-Asp-NH2) [Hex-[Cys(3MeBn)-Pro-Pro-Thr-Glu(NH-Apr-DOTA')-Phe-Cys]-Asp-NH2]
< 6 pIC50

What does the data say about its pIC50 Category (Activity)? Entry: Hexanoyl-CPPTEFCD-NH2 (linker 1-7 via mXylylene; SMILES CCCCCC(=O)N[C@H]1CSCc2cccc(c2)CSC[C@@H](C(=O)N[C@@H](CC(=O)O)C(N)=O)NC(=O)[C@H](Cc2ccccc2)NC(=O)[C@H](CCC(=O)O)NC(=O)[C@H]([C@@H](C)O)NC(=O)[C@@H]2CCCN2C(=O)[C@@H]2CCCN2C1=O) [Hex-[Cys(3MeBn)-Pro-Pro-Thr-Glu-Phe-Cys]-Asp-NH2]
> 8 pIC50

GET /values?readout=pIC50 Category (Activity)&item= {PentylNH‑urea}-CPPTQFCD-NH2 (linker 1-7 via mXylylene; SMILES CCCCCNC(=O)N[C@H]1CSCc2cccc(c2)CSC[C@@H](C(=O)N[C@@H](CC(=O)O)C(N)=O)NC(=O)[C@H](Cc2ccccc2)NC(=O)[C@H](CCC(N)=O)NC(=O)[C@H]([C@@H](C)O)NC(=O)[C@@H]2CCCN2C(=O)[C@@H]2CCCN2C1=O) [PentylNH-urea-[Cys(3MeBn)-Pro-Pro-Thr-Gln-Phe-Cys]-Asp-NH2]
> 8 pIC50

Please give the measured pIC50 Category (Activity) for this binder: Hexanoyl-CPPTQFCD-NH2 (linker 1-7 via tMeBn(GaDOTA-PP)) [Hex-[Cys(tMeBn(GaDOTA-PP))-Pro-Pro-Thr-Gln-Phe-Cys]-Asp-NH2]
> 8 pIC50
